Every entry's value here was drawn from ChEMBL document CHEMBL3992516.

Tested on: Mycobacterium tuberculosis
Test: Antimycobacterial activity against multidrug-resistant Mycobacterium tuberculosis CF104 clinical isolate incubated for 7 days measured 24 hrs post incubation by resazurin microtiter assay
Format: functional
Collected MIC90 values appear next to each entry.

| compound | readout.relation | MIC90 [µg/mL] |
| --- | --- | --- |
| CSc1ccc2c(c1)N(C(=O)CN1CCCCC1)c1ccccc1S2 | = | 72 |
| CSc1ccc2c(c1)N(CCC1CCCCN1Cc1ccccc1)c1ccccc1S2 (stereo unspecified) | = | 32 |
| Clc1ccc2c(c1)N(CCC1CCCCN1)c1ccccc1S2 (stereo unspecified) | = | 19 |
| c1ccc2c(c1)ccn2CCC1CCCCN1 (stereo unspecified) | = | 10 |
| CN1CCCCC1CCn1c2ccccc2c2ccccc21 (stereo unspecified) | = | 48 |
| NNC(=O)c1ccncc1 | > | 25 |
| CSc1ccc2c(c1)N(CCCN1CCN(C3C4CC5CC(C4)CC3C5)CC1)c1ccccc1S2 (stereo unspecified) | = | 20 |
| CO[C@H]1/C=C/O[C@@]2(C)Oc3c(C)c(O)c4c(O)c(c(/C=N/N5CCN(C)CC5)c(O)c4c3C2=O)NC(=O)/C(C)=C\C=C\[C@H](C)[C@H](O)[C@@H](C)[C@@H](O)[C@@H](C)[C@H](OC(C)=O)[C@@H]1C | > | 25 |
| CSc1ccc2c(c1)N(CCCN1CCN(C)CC1)c1ccccc1S2 | = | 23 |
| CSc1ccc2c(c1)N(CCC1CCCCN1)c1ccccc1S2 (stereo unspecified) | > | 100 |
| CSc1ccc2c(c1)N(CCC1CCCCN1C)c1ccccc1S2 (stereo unspecified) | = | 11 |
| CN1CCCCC1CCN1c2ccccc2Sc2ccc(Cl)cc21 (stereo unspecified) | = | 16 |
| c1ccc2c(c1)Sc1ccccc1N2CCC1CCCCN1 (stereo unspecified) | > | 64 |
| CN1CCCCC1CCN1c2ccccc2Sc2ccccc21 (stereo unspecified) | > | 64 |
| CN1CCN(CCCN2c3ccccc3Sc3ccccc32)CC1 | > | 100 |
| c1ccc2c(c1)ncn2CCC1CCCCN1 (stereo unspecified) | > | 100 |
